target: TGFβ1 (R&D Systems); assay: cell-based or functional assay
Sequence (P01137 279-390): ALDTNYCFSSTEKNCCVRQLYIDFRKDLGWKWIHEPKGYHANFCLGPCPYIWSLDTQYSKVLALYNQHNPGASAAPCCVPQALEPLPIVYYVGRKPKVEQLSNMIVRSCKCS
Reported pSmad-3, IC50 values are given for each entry in this list.
Readout Kind: pSmad-3, IC50 (nM)

>  <Binder>
affinity matured HcLb 233 (antibody, V domains shown, full IgG; also called canHcLb/55SW/100DY/57/SM + canHcLb/237ND/242TS) VH: EVQLVQSGAEVKKPGASVKVSCKTSGYTFITYWMNWVRQAPGAGLDWMGQIFPAWGMTNYNEMFEGRVTLTADTSTSTAYMELSSLRAGDIAVYYCARGYGNYALDAMDYWGQGTLVTVSS VL: DIVMTQTPPSLSVSPRETASISCRASESVDSYGNSFMHWYLQKPGQSPQLLIYLASNLESGVSDRFSGSGSGTDFTLRISRVEANDTGVYYCQQNDEDPLSFGQGTK

>  <Recorded Measurement>
0.71

$$$$
>  <Binder>
affinity matured HcLb 91 (antibody, V domains shown) VH: EVQLVQSGAEVKKPGASVKVSCKTSGYTFITYWMNWVRQAPGAGLDWMGQIFPAWGSTNYNEMFEGRVTLTADTSTSTAYMELSSLRAGDIAVYYCARGDGNYALDAMDYWGQGTLVTVSS VL: DIVMTQTPPSLSVSPRETASISCRASESVDSYGNSFMHWYLQKPGQSPQLLIYLASNLESGVSDRFSGSGSGTDFTLRISRVEANDTGVYYCQQNNEDPLTFGQ

>  <Recorded Measurement>
2.16

$$$$
>  <Binder>
affinity matured HcLb 239 (antibody, V domains shown, full IgG; also called canHcLb/55SW/100DY/31/TK + canHcLb/237ND/242TS) VH: EVQLVQSGAEVKKPGASVKVSCKTSGYTFIKYWMNWVRQAPGAGLDWMGQIFPAWGSTNYNEMFEGRVTLTADTSTSTAYMELSSLRAGDIAVYYCARGYGNYALDAMDYWGQGTLVTVSS VL: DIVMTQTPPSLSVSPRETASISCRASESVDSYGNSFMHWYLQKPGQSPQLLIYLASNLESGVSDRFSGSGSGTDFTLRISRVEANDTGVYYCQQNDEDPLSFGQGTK

>  <Recorded Measurement>
1.43

$$$$
>  <Binder>
affinity matured HcLb 27 (antibody, V domains shown) VH: EVQLVQSGAEVKKPGASVKVSCKTSGYTFITYWMNWVRQAPGAGLDWMGQIFPASGSTNYNEMFEGRVTLTADTSTSTAYMELSSLRAGDIAVYYCARGYGNYALDAMDYWGQGTLVTVSS VL: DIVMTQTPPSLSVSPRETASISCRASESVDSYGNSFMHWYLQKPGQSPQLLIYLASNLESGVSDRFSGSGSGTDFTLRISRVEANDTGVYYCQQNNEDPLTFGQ

>  <Recorded Measurement>
1.43

$$$$
